- assay-system: Catalase (Rattus norvegicus)
- Sequence (P04762 whole entry): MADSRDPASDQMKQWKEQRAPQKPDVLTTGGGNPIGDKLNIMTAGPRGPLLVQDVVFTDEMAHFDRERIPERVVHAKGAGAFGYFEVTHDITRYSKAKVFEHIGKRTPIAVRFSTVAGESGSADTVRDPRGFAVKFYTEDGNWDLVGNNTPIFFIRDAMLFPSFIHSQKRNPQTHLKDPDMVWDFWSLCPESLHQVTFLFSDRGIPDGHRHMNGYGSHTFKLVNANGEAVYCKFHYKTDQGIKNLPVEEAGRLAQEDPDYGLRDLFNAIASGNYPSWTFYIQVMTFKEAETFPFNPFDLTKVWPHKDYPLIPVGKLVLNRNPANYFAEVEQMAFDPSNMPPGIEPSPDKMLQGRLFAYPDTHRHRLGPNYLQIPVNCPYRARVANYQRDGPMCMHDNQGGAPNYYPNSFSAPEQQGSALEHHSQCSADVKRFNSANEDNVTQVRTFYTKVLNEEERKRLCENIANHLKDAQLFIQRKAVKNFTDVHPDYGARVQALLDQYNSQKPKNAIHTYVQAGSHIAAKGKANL
- experiment: Inhibition of catalase in Wistar rat brain
hey, just use true if measured EC50 is less than 3 µM, otherwise false

compound | qualitative-label
Cc1c(C)c2c(c(C)c1O)CC[C@@](C)(CCC[C@H](C)CCC[C@H](C)CCCC(C)C)O2 | false
COc1ccc2c3c1O[C@H]1C[C@@H](OP(=O)(OP(=O)(O)O)N(CCCl)CCCl)C=C[C@@]31CCN(C)C2 (stereo not given in full) | false
COc1ccc2c3c1O[C@H]1C[C@@H](OP(=O)(NCCO)N(CCCl)CCCl)C=C[C@@]31CCN(C)C2 (stereo not given in full) | true
COc1ccc2c3c1O[C@H]1C[C@@H](O)C=C[C@@]31CCN(C)C2 | false
COc1ccc2c3c1O[C@H]1C[C@@H](OP(=O)(NCCN)Oc4ccc([N+](=O)[O-])cc4)C=C[C@@]31CCN(C)C2 (stereo not given in full) | false

###

Entries and their pEC50
- assay-system: Catalase (Rattus norvegicus)
- experiment: Inhibition of catalase in Wistar rat brain
pEC50: −log10 of the molar value.
measured-quantity: pEC50

compound | readout-value
COc1ccc2c3c1O[C@H]1C[C@@H](OP(=O)(OCCO)Oc4ccc([N+](=O)[O-])cc4)C=C[C@@]31CCN(C)C2 (some centres not stated) | 5.21
COc1ccc2c3c1O[C@H]1C[C@@H](OP(=O)(SCCO)N(CCCl)CCCl)C=C[C@@]31CCN(C)C2 (some centres not stated) | 5.52
COc1ccc2c3c1O[C@H]1C[C@@H](OP(=O)(Oc4ccc([N+](=O)[O-])cc4)SCCO)C=C[C@@]31CCN(C)C2 (some centres not stated) | 5.11
COc1ccc2c3c1O[C@H]1C[C@@H](OP(=O)(OCCO)N(CCCl)CCCl)C=C[C@@]31CCN(C)C2 (some centres not stated) | 5.39
COc1ccc2c3c1O[C@H]1C[C@@H](OP(=O)(Oc4ccc([N+](=O)[O-])cc4)OP(=O)(O)O)C=C[C@@]31CCN(C)C2 (some centres not stated) | 5.29
COc1ccc2c3c1O[C@H]1C[C@@H](OP(=O)(NCCO)Oc4ccc([N+](=O)[O-])cc4)C=C[C@@]31CCN(C)C2 (some centres not stated) | 5.03
COc1ccc2c3c1O[C@H]1C[C@@H](OP(=O)(NCCN)N(CCCl)CCCl)C=C[C@@]31CCN(C)C2 (some centres not stated) | 5.29
